B1: TPR t1 (parent)
chain: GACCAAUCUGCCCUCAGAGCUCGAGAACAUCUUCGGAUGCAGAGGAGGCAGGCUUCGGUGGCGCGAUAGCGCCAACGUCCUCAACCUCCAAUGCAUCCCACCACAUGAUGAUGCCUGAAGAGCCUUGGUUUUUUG

Variants of: B1
protocolDescription: polymerase ribozyme fitness, log enrichment relative to wild type (log ratio); higher = more active; in vitro selection for triplet polymerase activity
Tick YES if polymerase ribozyme fitness (log ratio) is -2 or greater. Tick NO if polymerase ribozyme fitness (log ratio) is less than -2.

>  <seqText>
GAUCAAUCUGCUCUCAGAGCUCGAGAACAUCUUCGGAUGCAGAGGAGGCAGGCUUCGGUGGCGCGAUAGCGCCAACGUCCUCAACCUCGAAUGCAUCCCACCACAUGAUGAUGCCUGAAGAGCCUUGGUUUUUUG [C3U C12U C89G]

>  <groupLabel>
YES

$$$$
>  <seqText>
GACCAAUCUGCCCUCAGAGCUCGAGAACAUCUUCGGAUGCAGAGGAGGUAGGCUUCGGUGGCGCGAUAGCGCCAACGUCCUCAACCUCCAAUGAAUCCCACCACAUGAUGAUGCCUGAAGAGCCUUGGUUUUUUG [C49U C94A]

>  <groupLabel>
NO

$$$$

Determine whether this variant has polymerase ribozyme fitness (log ratio) no lower than -2: GACCAAUCUGCCGUCAGAGCUCGAGAACAUCUUCGGAUGCAGAGGAGGCAGGCUUCGGUGGCGCGAUAGCGCCAACGUCCUCAACCUCCAAUGUAUCCCACCACAUGAUGAUGCCUGAAGAGCCUUGGUUUUUUG [C13G C94U] YES

Determine whether this variant has polymerase ribozyme fitness (log ratio) no lower than -2: GACCAAUCUGCCCUCAGAGCUCGAGAACAUCUUCGGAUGCAGAGGAGGCAGGCUUCGGUGGCGCGAUAGCGUCAACGUCCUCAACCUCCAAUGCAUCCCACCACAUGAUGAUGCCUGAAGAGACUGGGUUUUUUG [C72U C123A U126G] YES

Determine whether this variant has polymerase ribozyme fitness (log ratio) no lower than -2: GACCAAUCUGCCCUCAGAGCUCGAGAACAUCUUCGGAUGCAGAGGAGGCAGGCUUCGGUGACGUGAUAGCGCCAACGUCCUCAACAUCCAAUGCAUCCCACCACAUGAUGAUGCCUGAAGAGCCUUGGUUUUUUG [G61A C64U C86A] NO

Determine whether this variant has polymerase ribozyme fitness (log ratio) no lower than -2: GACCAAUCUGCCCUCAGAACUCGAGAACAUCUUAGGAUGCAGAGGAGGCAGGCUUCGGUGGCGCGAUAGCGCCAACGUCCUCAACCUCAAAUGCAUCCCACCACAUGAUGAUGCCUGAAGAGCCUUGGUUUUUUG [G19A C34A C89A] NO

Determine whether this variant has polymerase ribozyme fitness (log ratio) no lower than -2: GACCAAUCUGCUCUCAGAGCUCGAGAACAUCUUCGGAUGCAGAGGAGGCAGGCUUCGGUGGCGCGAUAGCGCAAACGUCCUCAACCUCCAAUGCAUGCCACCAUAUGAUGAUGCCUGAAGAGCCUUGGUUUUUUG [C12U C73A C97G C104U] NO

Determine whether this variant has polymerase ribozyme fitness (log ratio) no lower than -2: GACCAAUCUGCCCUCAGAGCUCGAGAACAUCUUCGGAUGCAGAGGAGGCAGGCUUCGGUGGUGCGAUAGCGCCAACGACCUCAACCUCCAAUGCACCCCACCACAUGAUGAUGCCUGAAGAGCCUUGGUUUUUUG [C62U U78A U96C] YES
